biological target: T1, human insulin receptor (human, UniProt P06213 28-1382); assay: competition with 125I-insulin, receptor membranes, SPA
T1 construct: whole, on cells
Bridges are numbered along the chain shown (N, C = ends). Roman numbers before positions name the chains, in order. Where no end group is shown, it is not given here.
readout_kind: % insulin (in test) (%)
Field: numeric (%). Do not append units.

stdin: Which % insulin (in test) value belongs to IGF-1 A:B (ligand, disulfide I:6-I:11, I:20-II:18, I:7-II:6, also called IGF-1 A and B chain heteroduplex) chain 1: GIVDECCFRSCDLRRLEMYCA-NH2 chain 2: GPETLCGAELVDALQFVCGDRGFYFNKPT-NH2 ?
stdout: 5.8

stdin: For IGF-1 A:IGF-1 B(1-8)-In (9-17)-IGF-1 B(18-30) (ligand, disulfide I:6-I:11, I:20-II:18, I:7-II:6) chain 1: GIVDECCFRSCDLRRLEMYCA-NH2 chain 2: GPETLCGSHLVEALYLVCGDRGFYFNKPT-NH2 then?
stdout: 19.1

stdin: For IGF-1 A:B (H5D10Y16L17) DPI (ligand, disulfide I:6-I:11, I:20-II:18, I:7-II:6) chain 1: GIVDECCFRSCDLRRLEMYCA-NH2 chain 2: GPEHLCGADLVDALYLVCGDRGFY-NH2 then?
stdout: 479

stdin: For IGF-1 A:B (H5D10Y16L17) (S=O)DPI (ligand, disulfide I:6-I:11, I:20-II:18, I:7-II:6; also: (S=O), residue not given here, the only Met stands at A18) chain 1: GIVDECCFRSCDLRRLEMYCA-NH2 chain 2: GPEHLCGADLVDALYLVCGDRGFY-NH2 then?
stdout: 316
